Source: paper PMC11909128

- tgt: PIN1-NRF2 interaction (Homo sapiens, UniProt Q13526, M1N)
- Construct: host or cells: E. coli BL21 (DE3)
- Sequence (Q13526 whole entry M1N): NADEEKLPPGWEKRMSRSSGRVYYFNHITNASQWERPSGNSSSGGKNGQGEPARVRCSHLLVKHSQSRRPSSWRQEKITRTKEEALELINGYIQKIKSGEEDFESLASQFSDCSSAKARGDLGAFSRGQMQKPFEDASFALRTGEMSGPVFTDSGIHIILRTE
- method description: FP competition / ligand displacement assay: competitor titrated to fixed GST-PIN1 and fluorescently labelled NRF2 peptide
- Type: binding
- stated conditions: GST-PIN1 1 µM; labelled NRF2_209-222^pSer215 10 nM; read-out: IC50, inhibition of NRF2_209-222^pSer215 binding to PIN1
readout: IC50 (µM)
Numeric answer only, unit µM assumed.

Please report the recorded IC50 for O=C1C=CC(=O)c2c(O)cccc21 .
26.8
